Hello, the source for this data is ChEMBL document CHEMBL2380208, in case you need it.

Assay: Inhibition of Streptococcus pneumoniae topoisomerase 4
test_readout: IC50 (µM)

compound="COc1ccc2nccc(C(O)CC[C@@H]3CCN(C[C@@H]4C[C@H]4c4ccccc4)C[C@@H]3C(=O)O)c2c1 (mixture of isomers)" test_readout=IC50 experimental_value=7.5
compound=COc1ccc2nccc([C@@H](O)CC[C@@H]3CCN(CCSc4cccs4)C[C@@H]3C(=O)O)c2c1 test_readout=IC50 experimental_value=6.54
compound="COc1ccc2nccc(C(O)CC[C@@H]3CCN(C/C=C/c4cc(F)ccc4F)C[C@@H]3C(=O)O)c2c1 (stereo not given in full)" test_readout=IC50 experimental_value=3.75
compound="COc1ccc2nccc([C@@H](O)CC[C@@H]3CCN(C4CC(c5ccccc5)C4)C[C@@H]3C(=O)O)c2c1 (stereo not given in full)" test_readout=IC50 experimental_value=8.37
compound="COc1ccc2nccc([C@H](O)CC[C@@H]3CCN(C4CC(c5ccccc5)C4)C[C@@H]3C(=O)O)c2c1 (stereo not given in full)" test_readout=IC50 experimental_value=30
